biological target: Tryptophan 2,3-dioxygenase (Homo sapiens, UniProt P48775); test: Inhibition of recombinant human TDO expressed in Escherichia coli BL21 (DE3) assessed as reduction in conversion of L-tryptophan to N-formyl kynurenine using L-tryptophan as substrate after 30 mins by methylene blue assay
Sequence (P48775 whole entry): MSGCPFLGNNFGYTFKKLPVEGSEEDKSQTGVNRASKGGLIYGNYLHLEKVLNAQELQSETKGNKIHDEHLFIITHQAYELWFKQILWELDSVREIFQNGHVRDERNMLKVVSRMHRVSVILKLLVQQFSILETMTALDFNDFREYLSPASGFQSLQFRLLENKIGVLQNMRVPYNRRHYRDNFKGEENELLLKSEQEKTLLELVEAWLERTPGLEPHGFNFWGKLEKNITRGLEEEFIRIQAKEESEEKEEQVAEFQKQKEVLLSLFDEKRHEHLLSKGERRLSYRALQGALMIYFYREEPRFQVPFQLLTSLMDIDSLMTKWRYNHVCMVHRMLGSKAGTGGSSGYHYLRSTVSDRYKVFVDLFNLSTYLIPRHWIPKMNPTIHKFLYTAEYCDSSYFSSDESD
endpointLabel: IC50 (µM)

O=C1c2cc(F)ccc2-n2c1nc1ccc(N3CCOCC3)cc1c2=O :: 6.4

a: O=C1c2cc(F)ccc2-n2c1nc1ccc(N3CCCCC3)cc1c2=O
b: CN1CCN(c2ccc3nc4n(c(=O)c3c2)-c2ccccc2C4=O)CC1
## Task Identify the item whose IC50 is the smaller number: a or b # respond with the chosen item's label
## Result b
(b: 6.75 µM, a: 10.1 µM)

A: CN1CCN(c2ccc3nc4n(c(=O)c3c2)-c2ccc(F)cc2C4=O)CC1
B: CN(C)c1ccc2nc3n(c(=O)c2c1)-c1ccc(F)cc1C3=O
## Task Hi! Which is lower in terms of IC50, the first one A or the second one B ? Output the label that corresponds to your choice.
## Result A
(A: 2.59 µM, B: 3.82 µM)
